Test system: Yap1 mRNA
experiment: Dose-dependent inhibition of human Yap1 in A-431 cells (Example 8, 10,000 cells per well, RTS4814)
Assay type: cell-based
test-context: 500.0 nM; A-431 cells, 10,000 cells per well, free uptake, approximately 48 hours, RTS4814
Strand notation (5' to 3'): a small letter for the sugar, then the base; units joined by * are phosphorothioate-linked, units joined directly phosphodiester-linked; [ ] holds rarer units or linkages, { } end groups; capitals alone tell only the bases. k = constrained ethyl (cEt); [5mC] = 5-methylcytosine; d = 2'-deoxy (DNA)
endpoint-label: Yap1 mRNA, % UTC
The reply must contain the numeric value and, after it, the unit.

Can you share its Yap1 mRNA, % UTC? I mean this substance: 1074451 (kG*kA*k[5mC]*dT*dA*dA*dT*dG*dA*dT*dA*dG*d[5mC]*kA*k[5mC]*kT; antisense) [compound 1074451]
8 % UTC

So what's the measured Yap1 mRNA, % UTC for this one? 1074565 (DNA kA*k[5mC]*kT*dG*dA*dA*dT*dT*d[5mC]*d[5mC]*dA*dA*dT*k[5mC]*kG*kA; antisense) [compound 1074565]
9 % UTC

// lookup Yap1 mRNA, % UTC for 1074315 (antisense kG*kA*kT*dT*dG*dA*dT*dA*dT*dT*d[5mC]*d[5mC]*dG*k[5mC]*kA*kT) [compound 1074315]
9 % UTC

Looking for the measured Yap1 mRNA, % UTC of 1074762 (kG*k[5mC]*kT*dA*d[5mC]*d[5mC]*d[5mC]*dA*dA*dT*dA*d[5mC]*dA*kA*k[5mC]*k[5mC]; antisense) [compound 1074762] , can you help?
14 % UTC

So what does the record say about Yap1 mRNA, % UTC for 1074222 (antisense kA*kG*kG*dA*dA*dT*dG*dA*dG*d[5mC]*dT*d[5mC]*dG*kA*kA*k[5mC]) [compound 1074222] ?
8 % UTC

// query Yap1 mRNA, % UTC value for entry 1075249 (kA*kT*kT*dA*d[5mC]*dG*dA*dT*dT*dA*dG*dA*dT*k[5mC]*kA*kG; antisense) [compound 1075249]
16 % UTC

Data credit: patent US11214803B2
